The entries below come with measured pIC50 values attached.
tested target: HCV NS5B RdRp genotype 1b (Hepatitis C virus genotype 1b)
Construct: The protein was expressed with an 18 amino acid C-terminal truncation to enhance the solubility; made in house; host or cells: E. coli BL21(DE3), pET21a vector
Sequence (Q9WMX2 2420-2992): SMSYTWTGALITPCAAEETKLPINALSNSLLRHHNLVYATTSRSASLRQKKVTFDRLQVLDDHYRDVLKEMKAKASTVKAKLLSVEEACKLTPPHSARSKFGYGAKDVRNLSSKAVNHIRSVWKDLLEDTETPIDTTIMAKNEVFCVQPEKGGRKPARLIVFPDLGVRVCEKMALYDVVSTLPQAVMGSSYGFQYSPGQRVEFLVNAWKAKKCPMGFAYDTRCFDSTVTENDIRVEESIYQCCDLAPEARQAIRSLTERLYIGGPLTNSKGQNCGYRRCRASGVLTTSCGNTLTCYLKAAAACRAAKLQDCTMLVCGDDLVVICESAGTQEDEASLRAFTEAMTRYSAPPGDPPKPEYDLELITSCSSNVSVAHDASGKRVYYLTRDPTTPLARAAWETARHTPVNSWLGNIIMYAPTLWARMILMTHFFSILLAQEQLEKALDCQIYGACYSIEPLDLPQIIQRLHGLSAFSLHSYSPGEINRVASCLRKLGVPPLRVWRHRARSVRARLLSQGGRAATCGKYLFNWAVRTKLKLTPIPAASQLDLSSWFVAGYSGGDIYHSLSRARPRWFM
assay explanation: HCV NS5B RdRp enzyme assay (standard / modified)
Format: biochemical
experimental context: Table 1; HCV NS5B genotype 1b
pIC50: −log10 of the molar value.
property name: pIC50

compound: CNC(=O)c1c(-c2ccc(F)cc2)nn2cc(-c3cccc(OC)c3)ccc12
result: < 5.00
--
compound: CNC(=O)c1c(-c2ccc(F)cc2)nc2ccc(-c3cc(C(=O)NC(C)(C)c4ccccc4)ccc3C)cn12
result: 6.60 to 8.70
--
compound: CNC(=O)c1c(-c2ccc(F)cc2)nn2ccc(-c3cccc(C(=O)NC(C)(C)c4ccccc4)c3)cc12
result: 6.60 to 8.70
--
compound: CNC(=O)c1c(-c2ccccc2)nn2cc(I)ccc12
result: < 5.00
--
compound: CNC(=O)c1c(-c2ccc(F)cc2)nn2c(C)cc(-c3cc(C(=O)NC4(c5ccccc5)CC4)ccc3C)cc12
result: 6.60 to 8.70
--
compound: CCN(c1cn2nc(-c3ccc(F)cc3)c(C(=O)NC)c2cc1-c1cccc(C(=O)NC(C)(C)c2ccccc2)c1)S(C)(=O)=O [drawing 92]
result: 6.60 to 8.70
--
compound: CNC(=O)c1c(-c2ccc(F)cc2)oc2ncc(-c3cccc(C(=O)NC(C)(C)C)c3)cc12
result: 6.60 to 8.70
--
compound: CNC(=O)c1c(-c2ccc(F)cc2)nn2ccc(-c3cc(C(=O)NC4(c5ccc(F)cc5)CC4)ccc3C)cc12
result: 6.60 to 8.70
